# reported CTLA4 Fold change to WT CD80; entries follow
Molecular target: huCTLA4 (Homo sapiens, UniProt P16410)
Sequence (P16410 36-223): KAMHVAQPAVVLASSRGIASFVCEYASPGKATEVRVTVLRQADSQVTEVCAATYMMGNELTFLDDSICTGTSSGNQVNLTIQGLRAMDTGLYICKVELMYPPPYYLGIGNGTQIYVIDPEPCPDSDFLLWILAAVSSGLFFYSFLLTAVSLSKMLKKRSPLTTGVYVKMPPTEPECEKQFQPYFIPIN
Assay: Flow binding to CHO cells stably expressing CTLA4
Design: huCTLA4 and huPD-L1, full-length mammalian surface expression constructs were generated; expressed in transfected cells; host or cells: CHO cells, lentiviral transduction, sorted to >98% purity
Conditions: Table E23; MFI at 33.3 nM relative to CD80 WT IgV-Fc
Reply briefly: the number, and no unit.

Solved entries:
H18F/A26N/E35D/M47V/V68M/A71G/D90K (protein, UniProt P33681 35-288, looked up, variant H18F A26N E35D M47V V68M A71G D90K) T-lymphocyte activation …: VIHVTKEVKEVATLSCGFNVSVEELNQTRIYWQKDKKMVLTMMSGDVNIWPEYKNRTIFDITNNLSIMILGLRPSDEGTYECVVLKYEKKAFKREHLAEVTLSVKADFPTPSISDFEIPTSNIRRIICSTSGGFPEPHLSWLENGEELNAINTTVSQDPETELYAVSSKLDFNMTTNHSFMCLIKYGHLRVNQTFNWNTTKQEHFPDNLLPSWAITLISVNGIFVICCLTYCFAPRCRERRRNERLRRESVRPV
11.0
H18C/A26P/E35D/M47L/V68M/A71G (protein, UniProt P33681 35-288, looked up, variant H18C A26P E35D M47L V68M A71G) T-lymphocyte activation …: VIHVTKEVKEVATLSCGCNVSVEELPQTRIYWQKDKKMVLTMMSGDLNIWPEYKNRTIFDITNNLSIMILGLRPSDEGTYECVVLKYEKDAFKREHLAEVTLSVKADFPTPSISDFEIPTSNIRRIICSTSGGFPEPHLSWLENGEELNAINTTVSQDPETELYAVSSKLDFNMTTNHSFMCLIKYGHLRVNQTFNWNTTKQEHFPDNLLPSWAITLISVNGIFVICCLTYCFAPRCRERRRNERLRRESVRPV
16.9
H18V/A26P/E35D/M47L/V68M/A71G (protein, UniProt P33681 35-288, looked up, variant H18V A26P E35D M47L V68M A71G) T-lymphocyte activation …: VIHVTKEVKEVATLSCGVNVSVEELPQTRIYWQKDKKMVLTMMSGDLNIWPEYKNRTIFDITNNLSIMILGLRPSDEGTYECVVLKYEKDAFKREHLAEVTLSVKADFPTPSISDFEIPTSNIRRIICSTSGGFPEPHLSWLENGEELNAINTTVSQDPETELYAVSSKLDFNMTTNHSFMCLIKYGHLRVNQTFNWNTTKQEHFPDNLLPSWAITLISVNGIFVICCLTYCFAPRCRERRRNERLRRESVRPV
11.7

Let us move to another entry and its CTLA4 Fold change to WT CD80.
Look up CTLA4 Fold change to WT CD80 of H18V/A26D/E35D/M47V/V68M/A71G/D90G (protein, UniProt P33681 35-288, looked up, variant H18V A26D E35D M47V V68M A71G D90G, Fc fusion) T-lymphocyte activation …: VIHVTKEVKEVATLSCGVNVSVEELDQTRIYWQKDKKMVLTMMSGDVNIWPEYKNRTIFDITNNLSIMILGLRPSDEGTYECVVLKYEKGAFKREHLAEVTLSVKADFPTPSISDFEIPTSNIRRIICSTSGGFPEPHLSWLENGEELNAINTTVSQDPETELYAVSSKLDFNMTTNHSFMCLIKYGHLRVNQTFNWNTTKQEHFPDNLLPSWAITLISVNGIFVICCLTYCFAPRCRERRRNERLRRESVRPV and report it.
16.0
